# IC50 listing for each entry below
study-system: HLA-DR DRB1*0401 (DR4) (Homo sapiens, UniProt P01903+P01911, A100K/A169T/F76Y/I96L/K127E/L162R/M171V/N62H/P40V/Q125Y/R42H/S133A/S149N/S66Y/V115G/V209L/W38E)
assay-overview: biochemical
Assay type: binding
experimental-parameters: DRB1 *0401
Give the quantity in µM, number only.

Examples with answers:
>>> readout_value("CSCC[C@H](NC(=O)[C@H](CCC(N)=O)NC(=O)[C@H](CC(C)C)NC(=O)CNC(=O)[C@H](CO)NC(=O)[C@@H](NC(=O)[C@@H](NC(=O)[C@@H](NC(=O)[C@@H](N)CC(=O)O)[C@@H](C)O)[C@@H](C)O)C(C)C)C(=O)N[C@@H](C)C(=O)N[C@@H](CC(C)C)C(=O)N[C@@H](CC(=O)O)C(=O)N[C@H](C(=O)N[C@@H](Cc1ccc(O)cc1)C(=O)N[C@@H](CC(N)=O)C(=O)O)C(C)C")
4.42
>>> readout_value("CC[C@H](C)[C@H](NC(=O)[C@@H]1CCCN1C(=O)[C@H](CC(N)=O)NC(=O)[C@@H](N)Cc1c[nH]c2ccccc12)C(=O)N[C@@H](CC(C)C)C(=O)N[C@@H](CC(C)C)C(=O)N[C@@H](Cc1c[nH]c2ccccc12)C(=O)N[C@@H](CCC(N)=O)C(=O)N1CCC[C@H]1C(=O)N[C@H](C(=O)N1CCC[C@H]1C(=O)N[C@H](C(=O)N[C@@H](Cc1c[nH]cn1)C(=O)N[C@H](C(=O)N[C@H](C(=O)O)C(C)C)[C@@H](C)O)C(C)C)[C@@H](C)CC")
0.695

Please look at the following molecule next.
Ask: Consider the molecule shown here: "CSCC[C@H](NC(=O)[C@H](CCC(=O)O)NC(=O)[C@H](CCC(N)=O)NC(=O)[C@@H]1CCCN1)C(=O)N[C@@H](CCCCN)C(=O)N[C@H](C(=O)N[C@@H](Cc1ccc(O)cc1)C(=O)N[C@@H](CO)C(=O)N[C@H](C(=O)N[C@@H](CO)C(=O)N[C@@H](Cc1ccccc1)C(=O)N[C@@H](CC(=O)O)C(=O)N[C@@H](CO)C(=O)N[C@@H](CC(C)C)C(=O)N[C@@H](Cc1ccccc1)C(=O)O)C(C)C)[C@@H](C)O" What is its recorded IC50?
Reply: 3.02

====

study-system: HLA-DR DRB1*1501 (DR15) (Homo sapiens, UniProt P01903+P01911)
assay-overview: biochemical
Format: binding
No end group written: not given here.
# note: exactly 60 nM is not below, so it is NO; use YES for IC50 strictly under it

>>> assigned_category("VGGVYLLRRAGPRLGV")
"YES"
>>> assigned_category("GAPLGAAARALAHGV")
"NO"
>>> assigned_category("GAPLGGALRALAHGV")
"NO"
>>> assigned_category("VGGVYALPRRGPRLGV")
"NO"
>>> assigned_category("EYLILSARDVLAVVS")
"NO"

Ask: Bench note: check whether "VGGVYLAPRRGPRLGV" shows IC50 below 60 nM
Reply: YES

Ask: For "GAPLGGAAAALAHGV" , is the recorded IC50 below the cut-off of 60 nM?
Reply: NO

Ask: Hi there! Is IC50 for "VGGAYLLPRRGPRLGV" below 60 nM, do you know?
Reply: YES

Ask: Lab note: confirm whether the reported IC50 for this sequence is below 60 nM, equality not counting. sequence: "GAALGGAARALAHGV"
Reply: NO

Ask: Is it true that IC50 reported for "VGGVYLLPARGPRLGV" is less than 60 nM?
Reply: YES

Ask: For this sequence, is IC50 lower than 60 nM? "GAPLGGAARAAAHGV"
Reply: NO

Ask: Does this sequence meet the criterion IC50 < 60 nM? "VGGVYLLARRGPRLGV"
Reply: YES

Ask: Strictly below 60 nM in IC50? "GAPLGGAARALAAGV"
Reply: NO
